target: ROMK (Kir1.1) channel (Homo sapiens (Human), UniProt P48048); assay: Thallium Flux Assay
Sequence (P48048 whole entry): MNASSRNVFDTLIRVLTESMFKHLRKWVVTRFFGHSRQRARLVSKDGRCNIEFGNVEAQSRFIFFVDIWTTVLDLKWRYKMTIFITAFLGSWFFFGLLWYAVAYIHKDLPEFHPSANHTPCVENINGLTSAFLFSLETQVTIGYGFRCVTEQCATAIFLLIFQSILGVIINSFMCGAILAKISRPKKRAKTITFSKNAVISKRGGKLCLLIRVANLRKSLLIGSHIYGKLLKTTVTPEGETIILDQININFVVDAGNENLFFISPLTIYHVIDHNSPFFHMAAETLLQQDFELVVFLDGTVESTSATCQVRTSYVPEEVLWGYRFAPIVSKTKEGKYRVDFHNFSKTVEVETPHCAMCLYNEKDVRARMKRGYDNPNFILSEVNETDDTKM
property: IC50 (nM)

Use these answered entries as a reference point.
| compound | observed value |
| --- | --- |
| CC1=C(N2CC[C@]3(CC[C@@H](N[C@H](C)c4ccc(-n5cnnn5)nc4)CC3)C2=O)COC1=O | 18 |
| CC1=C(N2CC[C@]3(CC[C@H](N(C)CCc4ccc5c(c4)COC5=O)CC3)C2=O)COC1=O | 150 |
| CC1=C(N2CC[C@]3(CC[C@@H](NCc4ccc5c(c4)CCc4nnnn4-5)CC3)C2=O)COC1=O | 4.3 |
| CC1=C(N2CC[C@]3(CC[C@H](NCc4ccc(-n5cnnn5)cc4)CC3)C2=O)COC1=O | 49 |
| O=C1C=C(N2CC[C@]3(CC[C@@H](NCc4cnc(-n5cnnn5)cn4)CC3)C2=O)CO1 | 340 |
| CC1=C(N2CC[C@]3(CC[C@H](N[C@H](CO)c4ccc(-n5cnnn5)nc4)CC3)C2=O)COC1=O | 360 |

[a] CC1C[C@]2(CC[C@@H](NCc3cnc(-n4cnnn4)cn3)CC2)C(=O)N1C1=CC(=O)OC1 (some centres unmarked) [Example 50]
[b] C[C@H]1C[C@]2(CC[C@@H](NCc3cnc(-n4cnnn4)cn3)CC2)C(=O)N1C1=CC(=O)OC1
Pick one, a or b : lowest reported IC50. Refer to your chosen entry by its label in the reply. b

[A] CC1=C(N2CC[C@]3(CC[C@@H](N(C)[C@@H](C)c4ccc(-n5cnnn5)nc4)CC3)C2=O)COC1=O
[B] CC1=C(N2CC[C@]3(CC[C@@](C)(NCc4ccc(-n5cnnn5)nn4)CC3)C2=O)COC1=O
Pick one, A or B : lowest reported IC50. Refer to your chosen entry by its label in the reply. B

[I] C[C@H]1C[C@]2(CC[C@H](NCc3ccc(-n4cnnn4)nc3)CC2)C(=O)N1C1=CC(=O)OC1
[II] CC1=C(N2CC[C@]3(CC[C@@H](NCc4cc5c(cc4C)-c4nnnn4C5)CC3)C2=O)COC1=O
[III] CC1=C(N2CC[C@]3(CC[C@@H](N(C)Cc4ccc5c(c4)Cn4nnnc4-5)CC3)C2=O)COC1=O [Example 106]
Ascending sort, IC50. List the labels, following the order given in the request. III, II, I

[I] CC1=C(N2CC[C@]3(CC[C@@H](NCc4ncc(-n5cnnn5)nc4C)CC3)C2=O)COC1=O
[II] CC1=C(N2CC[C@]3(CC[C@H](NCc4ccc(-n5cnnn5)nc4)CC3)C2=O)COC1=O
[III] CC1=C(N2CC[C@]3(CC[C@H](NCc4ccc(-n5ncnn5)cc4)CC3)C2=O)COC1=O
[IV] CC1=C(N2CC[C@]3(CC[C@@H](N(C)[C@H](C)c4ccc(-n5cnnn5)nc4)CC3)C2=O)COC1=O
[V] CC1=C(N2CC[C@]3(CC[C@@H](NCc4ccc(-n5cnnn5)nc4)CC3)C2=O)COC1=O
Ranking field: IC50; order: falling. List the labels, following the order given in the request. II, III, I, V, IV
